Measured Emax, listed per entry for reference.
Target: human GPR119 (hGPR119) (Homo sapiens, UniProt Q8TDV5)
Construct: expressed in transfected cells
Sequence (Q8TDV5 1-335): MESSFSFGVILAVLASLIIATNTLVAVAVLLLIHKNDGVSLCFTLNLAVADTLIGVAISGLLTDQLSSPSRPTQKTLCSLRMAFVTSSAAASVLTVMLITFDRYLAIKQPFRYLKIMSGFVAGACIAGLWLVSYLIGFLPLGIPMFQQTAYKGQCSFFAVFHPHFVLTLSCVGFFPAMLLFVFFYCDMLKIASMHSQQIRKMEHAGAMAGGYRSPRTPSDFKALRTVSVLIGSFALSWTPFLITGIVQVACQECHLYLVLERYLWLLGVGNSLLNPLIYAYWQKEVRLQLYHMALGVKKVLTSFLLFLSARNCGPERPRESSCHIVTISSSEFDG
Assay: cAMP accumulation assay (cAMP Gs dynamic HTRF kit)
Assay type: cell-based
Conditions: 1 h; CHO-K1 cells stably expressing hGPR119; % activity normalized to Max/Min controls; 4-parameter fit

// below: answered molecules
Molecule	Emax
O=C(Cc1ccc(OCCCC2CCN(c3ncc(Cl)cn3)CC2)cc1F)N1CCC(O)(C(=O)NC[C@H](O)[C@@H](O)[C@H](O)[C@H](O)CO)C1 (stereo partly drawn) [Example 181]	100 to 130%
O=C(Cc1c(F)cc(OCCCC2CCN(c3ncc(Cl)cn3)CC2)cc1F)N1CC(CNC[C@H](O)[C@@H](O)[C@H](O)[C@H](O)CO)C1 [Example 53]	≥ 130%
O=C(Cc1ccc(OCCCC2CCN(c3ncc(Cl)cn3)CC2)cc1F)NCCO[C@H]1O[C@H](CO)[C@@H](O)[C@H](O)[C@@H]1O (racemic) [Example 16]	100 to 130%
CCOc1cnc(N2CCC(CCCOc3ccc(CC(=O)N4CC(CNC[C@H](O)[C@@H](O)[C@H](O)[C@H](O)CO)C4)c(F)c3)CC2)nc1 (racemic) [Example 80]	100 to 130%

What reported Emax corresponds to COCc1cnc(N2CCC(CCCOc3cc(F)c(CC(=O)N4CC[C@@H](CNCC(CO)(CO)CO)C4)c(F)c3)CC2)nc1 [Example 160] on human GPR119 (hGPR119) (Homo sapiens, UniProt Q8TDV5)?
≥ 130%

What reported Emax corresponds to O=C(Cc1c(F)cc(OCCCC2CCN(c3ncc(Cl)cn3)CC2)cc1F)N1CC[C@@H](CNC(CO)(CO)CO)C1 [Example 149] on human GPR119 (hGPR119) (Homo sapiens, UniProt Q8TDV5)?
≥ 130%

====

target: human GPR119 (hGPR119) (Homo sapiens); construct: expressed in transfected cells; assay: cAMP accumulation assay (cAMP Gs dynamic HTRF kit); assay type: cell-based; conditions: 1 h; CHO-K1 cells stably expressing hGPR119; % activity normalized to Max/Min controls; 4-parameter fit
Measured Emax, listed per entry for reference.

// below: answered molecules
Molecule	Reported endpoint	Value
O=C(Cc1ccc(OCCCC2CCN(c3ncc(Cl)cn3)CC2)cc1F)N1CC(CNC[C@H](O)[C@@H](O)[C@H](O)CO)C1	Emax	100 to 130%
CCCc1cnc(N2CCC(CCCOc3cc(F)c(CC(=O)NCCCCC[N+](CC)(CC)CC)c(F)c3)CC2)nc1	Emax	100 to 130%
CCc1cnc(N2CCC(CCCOc3ccc(CC(=O)N4CC(CNC(CO)(CO)CO)C4)c(F)c3)CC2)nc1	Emax	≥ 130%
CC(C)OC(=O)N1CCC2(CC1)CC(CCOc1ccc(CC(=O)N3CC(CNC[C@H](O)[C@@H](O)[C@H](O)[C@H](O)CO)C3)c(F)c1)C2	Emax	100 to 130%
O=C(Cc1ccc(OCCCC2CCN(c3ncc(Cl)cn3)CC2)cc1F)NCCCCCNC[C@H](O)[C@@H](O)[C@H](O)[C@H](O)CO	Emax	≥ 130%
O=C(Cc1c(F)cc(OCCCC2CC3(CCN(c4ncc(Cl)cn4)CC3)C2)cc1F)N1CC(CNC[C@H](O)[C@@H](O)[C@H](O)[C@H](O)CO)C1	Emax	≥ 130%
O=C(Cc1c(F)cc(OCCC2CCC23CCN(c2ncc(Cl)cn2)CC3)cc1F)N1CC(CNC[C@H](O)[C@@H](O)[C@H](O)[C@H](O)CO)C1 (some centres unmarked)	Emax	100 to 130%
O=C(Cc1ccc(OCCCC2CCN(c3ncc(Cl)cn3)CC2)cc1F)N1CCC(O)(CNCC(CO)(CO)CO)C1 (centres unmarked)	Emax	100 to 130%
COCc1cnc(N2CCC(CCCOc3cc(F)c(CC(=O)N4CC[C@@H](CNCC(O)(CO)CO)C4)c(F)c3)CC2)nc1	Emax	100 to 130%
O=C(OCCC1CCN(c2ncc(Cl)cn2)CC1)c1ccc(CC(=O)N2CC(CNC[C@H](O)[C@@H](O)[C@H](O)[C@H](O)CO)C2)c(F)c1 (racemic)	Emax	100 to 130%

I'd like to know its Emax. The molecule in question is O=C(NCCCS(=O)(=O)O)C1CN(C(=O)Cc2ccc(OCCCC3CCN(c4ncc(Cl)cn4)CC3)cc2F)C1
100 to 130%

I'd like to know its Emax. The molecule in question is O=C(Cc1ccc(OCCCC2CCN(c3ncc(Cl)cn3)CC2)cc1F)N1CC[C@H](CNCC(O)(CO)CO)C1
100 to 130%

I'd like to know its Emax. The molecule in question is O=C(Cc1ccc(OCCCC2CCN(c3ncc(Cl)cn3)CC2)cc1F)NCCCCC(=O)NC(CO)(CO)CO
≥ 130%

I'd like to know its Emax. The molecule in question is CCCc1cnc(N2CCC(CCCOc3cc(F)c(CC(=O)N4CC(CNCC(O)(CO)CO)C4)c(F)c3)CC2)nc1
100 to 130%

I'd like to know its Emax. The molecule in question is CC[N+](CC)(CC)CCCCCNC(=O)Cc1ccc(OCCCC2CCN(c3ncc(Cl)cn3)CC2)cc1F
≥ 130%

I'd like to know its Emax. The molecule in question is COCc1cnc(N2CCC([C@H]3C[C@H]3CCOc3ccc(CC(=O)N4CC[C@@H](CNCC(CO)(CO)CO)C4)c(F)c3)CC2)nc1
100 to 130%

I'd like to know its Emax. The molecule in question is O=C(CCC1CN(C(=O)Cc2ccc(OCCCC3CCN(c4ncc(Cl)cn4)CC3)cc2F)C1)NCC(O)(CO)CO
≥ 130%

I'd like to know its Emax. The molecule in question is O=C(Cc1ccc(OCCC2CC(C3CCN(c4ncc(Cl)cn4)CC3)C2)cc1F)N1CC(CNC[C@H](O)[C@@H](O)[C@H](O)[C@H](O)CO)C1 (some centres unmarked)
100 to 130%

I'd like to know its Emax. The molecule in question is O=C(OC[C@@H]1C[C@@H]1C1CCN(c2ncc(Cl)cn2)CC1)c1ccc(CC(=O)N2CC(CNC[C@H](O)[C@@H](O)[C@H](O)[C@H](O)CO)C2)c(F)c1 (racemic)
100 to 130%

I'd like to know its Emax. The molecule in question is COCC1(C(=O)NC[C@H](O)[C@@H](O)[C@H](O)[C@H](O)CO)CCN(C(=O)Cc2ccc(OCCCC3CCN(c4ncc(Cl)cn4)CC3)cc2F)C1 (some centres unmarked)
100 to 130%

I'd like to know its Emax. The molecule in question is O=C(Cc1ccc(OCCCC2CCN(c3ncc(Cl)cn3)CC2)cc1F)N1CC(CNC[C@H](O)[C@H](O)[C@H](O)CO)C1
100 to 130%

I'd like to know its Emax. The molecule in question is O=C(Cc1ccc(OCCCC2CCN(c3ncc(Cl)cn3)CC2)cc1F)NCCCC(=O)NC(CO)CO
≥ 130%

====

Target: UniProt:Q8TDV5
Sequence (Q8TDV5 1-335): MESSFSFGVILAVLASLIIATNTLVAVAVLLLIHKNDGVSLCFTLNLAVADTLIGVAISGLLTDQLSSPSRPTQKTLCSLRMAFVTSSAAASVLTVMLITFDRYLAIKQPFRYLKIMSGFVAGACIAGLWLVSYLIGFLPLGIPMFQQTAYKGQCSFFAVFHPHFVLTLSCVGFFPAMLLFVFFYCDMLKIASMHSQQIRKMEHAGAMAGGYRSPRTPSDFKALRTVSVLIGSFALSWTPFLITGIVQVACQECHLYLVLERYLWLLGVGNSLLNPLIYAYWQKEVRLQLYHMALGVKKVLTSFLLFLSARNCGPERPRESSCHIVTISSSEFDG
Assay: cAMP accumulation assay (cAMP Gs dynamic HTRF kit)
Conditions: CHO-K1 cells stably expressing hGPR119; cAMP accumulation; 4-parameter fit
pEC50: −log10 of the molar value.
Reported endpoint: pEC50

Molecule	Value
CCCc1cnc(N2CCC(CCCOc3ccc(CC(=O)N4CC(CNCC(O)(CO)CO)C4)c(F)c3)CC2)nc1 [Example 71]	≥ 7.00
CC(C)OC(=O)N1CCC2(CC1)CC2CCCOc1cc(F)c(CC(=O)N2CC(CNC[C@H](O)[C@@H](O)[C@H](O)[C@H](O)CO)C2)c(F)c1 (stereo partly shown) [Example 146]	6.00 to 7.00
O=C(CC1CN(C(=O)Cc2ccc(OCCCC3CCN(c4ncc(Cl)cn4)CC3)cc2F)C1)NCCS(=O)(=O)O [Example 176]	6.00 to 7.00

Now examine the next entry.
I'd like to know its pEC50. The molecule in question is CCc1cnc(N2CCC(CCCOc3cc(F)c(CC(=O)NC(CO)(CO)CO)c(F)c3)CC2)nc1 [Example 7]
≥ 7.00
